Entries annotated with measured pIC50
- Tested on: dengue virus (DENV serotype 2, strain New Guinea C)
- assay_overview: microbe, parasite or virus in culture
- Format: cell-based
- condition_details: DENV2, 120 h, virus yield reduction in Vero cells, 5 days
pIC50: −log10 of the molar value.
reported_metric: pIC50

{"substance_smiles": "OC[C@@H]1[C@@H](O)[C@H](O)[C@@H](O)CN1CCCCCCCCc1ccco1", "reported_metric": "pIC50", "measured_result": 5.15}
{"substance_smiles": "O=[N+]([O-])c1cc(-n2nccn2)ccc1NCCCCCCN1C[C@H](O)[C@@H](O)[C@H](O)[C@H]1CO", "reported_metric": "pIC50", "measured_result": 5.30}
